Where do the numbers come from? From patent US8304236B2.

Please respond with reported pI observed for every item in the list.
assay: Isoelectric focusing electrophoresis (pI observed); assay type: physicochemical; conditions: pH 3 to 10 gel
Respond with the number and no other words.

Give its pI observed value. Item: TM2 D40NR104E: TM2 mutant having mutation of D40N and R104E; SEQ ID NO: 22 (protein, Synthetic TM2 D40NR104E) MSDVQSSLTGTWYNELNSKMELTANKDGTLTGKYLSKVGNVYVPYPLSGRYNLQPPAGQGVALGWAVSWENSKIHSATTWSGQFFSESSPVILTQWLLSSSTAEGDVWESTLVGNDSFTKTAPTEQQIAHAQLHCRAPRLK 8.9

// query: TM2 K73Q: TM2 mutant in which lysine at position 73 was replaced with glutamine; SEQ ID NO: 6 (protein, Synthetic TM2 K73Q) MSDVQSSLTGTWYNELNSKMELTANKDGTLTGKYLSKVGDVYVPYPLSGRYNLQPPAGQGVALGWAVSWENSQIHSATTWSGQFFSESSPVILTQWLLSSSTARGDVWESTLVGNDSFTKTAPTEQQIAHAQLHCRAPRLK 7.7

// query: TM2 D40N: TM2 mutant in which aspartic acid at position 40 was replaced with asparagine; SEQ ID NO: 20 (protein, Synthetic TM2 D40N) MSDVQSSLTGTWYNELNSKMELTANKDGTLTGKYLSKVGNVYVPYPLSGRYNLQPPAGQGVALGWAVSWENSKIHSATTWSGQFFSESSPVILTQWLLSSSTARGDVWESTLVGNDSFTKTAPTEQQIAHAQLHCRAPRLK 9.7

// query: TM2 K33TK37A: TM2 mutant, lysine 33 replaced with threonine and lysine 37 with alanine; SEQ ID NO: 12 (protein, Synthetic TM2 K33TK37A) MSDVQSSLTGTWYNELNSKMELTANKDGTLTGTYLSAVGDVYVPYPLSGRYNLQPPAGQGVALGWAVSWENSKIHSATTWSGQFFSESSPVILTQWLLSSSTARGDVWESTLVGNDSFTKTAPTEQQIAHAQLHCRAPRLK 6.2
